# Tested on: GST-Hu-p50 (Homo sapiens, UniProt P19838 7-356)
# Sequence (P19838 7-356): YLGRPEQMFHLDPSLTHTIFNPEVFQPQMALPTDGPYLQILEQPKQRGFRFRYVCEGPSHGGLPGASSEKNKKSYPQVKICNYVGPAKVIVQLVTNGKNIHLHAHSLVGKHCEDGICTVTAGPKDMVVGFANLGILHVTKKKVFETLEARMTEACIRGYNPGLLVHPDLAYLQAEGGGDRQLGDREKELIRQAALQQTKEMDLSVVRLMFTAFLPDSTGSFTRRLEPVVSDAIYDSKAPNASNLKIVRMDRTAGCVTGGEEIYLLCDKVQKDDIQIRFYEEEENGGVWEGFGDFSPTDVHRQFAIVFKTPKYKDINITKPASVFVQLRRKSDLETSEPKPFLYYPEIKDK
# Experiment summary: protein-binding microarray (PBM); PBM: ~300 nM protein, 6 mM HEPES pH 7.8, 80 mM KCl, 0.5 mM EDTA, 0.5 mM EGTA, 6% glycerol, 35 ng/ul poly-dIdC, 1% milk, 1 h, room temperature; Ap Aiptasia and Nv Nematostella (sea anemones) / Co Capsaspora / Aq Amphimedon (sponge) / Dm Drosophila / Hu human; RHD is the Rel homology domain; high values mean tight binding
# Applied conditions: dsDNA, one strand shown
Labelling: binding signal reported below 4 z-score becomes True; at or above becomes False.

Solved cases below.
Task: Bench note: check whether CCGATTAACATCAGGGAAACTCATGATGTTAATCGGGTCTTGATTCGCTTGACGCTGCTG shows binding signal below 4 z-score
Output: True

Task: Quick check: does CCGATTAACATCAGGACTCTCCCTGATGTTAATCGGGTCTTGATTCGCTTGACGCTGCTG have binding signal under 4 z-score?
Output: True

Task: Please let me know if CCGATTAACATCACACACCCCCCTGATGTTAATCGGGTCTTGATTCGCTTGACGCTGCTG shows binding signal below 4 z-score.
Output: True

Task: Please let me know if CCGATTAACATCAATAAATTCCCTGATGTTAATCGGGTCTTGATTCGCTTGACGCTGCTG shows binding signal below 4 z-score.
Output: False

Consider now this further sequence.
Task: Just wondering, is binding signal of CCGATTAACATCAGACATTCCCATGATGTTAATCGGGTCTTGATTCGCTTGACGCTGCTG below 4 z-score?
Output: True

The measured values listed here are drawn from paper PMC5700166.
